Parameter: pIC50. Scope: all listed entries.
# system-under-test: human IBAT (Homo sapiens, UniProt Q12908)
# Construct: expressed in transfected cells; host or cells: Baby hamster kidney (BHK) cells, clone H14
# Sequence (Q12908 1-348): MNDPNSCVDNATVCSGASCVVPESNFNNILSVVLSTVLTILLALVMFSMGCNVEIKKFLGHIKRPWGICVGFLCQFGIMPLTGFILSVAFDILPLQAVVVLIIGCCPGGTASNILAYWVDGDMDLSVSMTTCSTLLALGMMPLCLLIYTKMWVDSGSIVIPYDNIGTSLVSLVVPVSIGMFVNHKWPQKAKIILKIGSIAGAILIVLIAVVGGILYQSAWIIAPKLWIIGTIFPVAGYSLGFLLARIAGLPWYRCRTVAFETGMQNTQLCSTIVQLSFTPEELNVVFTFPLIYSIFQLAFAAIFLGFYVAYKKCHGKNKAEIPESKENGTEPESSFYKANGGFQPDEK
# method: In vitro assay of IBAT-mediated uptake of [14C]-taurocholate (TC) in H14 cells
# Format: cell-based
# condition-set: read-out: Human TC IC50
Interpret pIC50 as the negative base-10 log of the concentration measured in mol/L.

1) CCCCC1(CC)CS(=O)(=O)c2ccc(NC(=O)OCc3ccccc3)cc2C(c2ccc(F)cc2)C1O (centres unmarked) | 6.15
2) CCCC[C@]1(CC)CS(=O)(=O)c2ccc(N)cc2[C@@H](c2ccc(OCCOCCOCCI)cc2)[C@H]1O | 5.89
3) CCCCC1(CCCC)CS(=O)(=O)c2ccc(N(C)C)cc2C(c2ccc(OCCOCCOCCI)cc2)C1O (centres unmarked) | 7.47
4) CCCCC1(CCCC)CS(=O)(=O)c2ccc(N(C)C)cc2C(c2cccc(OCCOCCOCC[n+]3ccc(C4CC=CCC4)cc3)c2)C1O (centres unmarked) | 8.00
5) CCCCC1(CCCC)CS(=O)(=O)c2ccc(OC)cc2C(c2ccncc2)C1O (centres unmarked) [Example 1164] | 7.03
6) CCCCC1(CCCC)CS(=O)(=O)c2ccc(N(C)C)cc2C(c2cccc(OCCOCCOCC[N+](CC)(CC)CCC(=O)O)c2)C1O (centres unmarked) | 7.72
7) CCCCC1(CC)CS(=O)(=O)c2ccc(N(C)C)cc2C(c2ccc(OC)c(F)c2)C1O (centres unmarked) [Example 1074] | 8.40
8) CCCCC1(CCCC)CS(=O)(=O)c2c(F)cccc2C(c2ccc(F)cc2)C1O (centres unmarked) | 6.74

Hello, I am looking for reported pIC50 with human IBAT (Homo sapiens, UniProt Q12908) for CCCCC1(CCCC)CS(=O)(=O)c2ccc(N(C)C)cc2C(c2ccccc2)C1O (single isomer, unassigned) [Example 1200] . Could you help?
5.21

Hello, I am looking for reported pIC50 with human IBAT (Homo sapiens, UniProt Q12908) for CCCCC1(CCCC)CS(=O)(=O)c2ccc(N(C)C)cc2C(c2cccc(N(C)C)c2)C1O (centres unmarked) . Could you help?
7.89

Hello, I am looking for reported pIC50 with human IBAT (Homo sapiens, UniProt Q12908) for CCCCC1(CCCC)CS(=O)(=O)c2ccc(N(C)C)cc2C(c2cccc(OCCOCCOCC[n+]3ccc(C(C)C)cc3)c2)C1O (centres unmarked) [Example 1027] . Could you help?
8.70

Hello, I am looking for reported pIC50 with human IBAT (Homo sapiens, UniProt Q12908) for CCCCC1(CCCC)CS(=O)(=O)c2ccc(N(C)C)cc2C(c2cccc(NC(=O)CCCC[N+](CC)(CC)CC)c2)C1O (centres unmarked) . Could you help?
9.40

Hello, I am looking for reported pIC50 with human IBAT (Homo sapiens, UniProt Q12908) for CCCCC1(CC)CS(=O)(=O)c2ccc(N)cc2C(c2ccc(OC)cc2)C1O (centres unmarked) . Could you help?
6.72

Hello, I am looking for reported pIC50 with human IBAT (Homo sapiens, UniProt Q12908) for CCCCC1(CC)CS(=O)(=O)c2ccc(NC(=O)OCc3ccccc3)cc2C(c2ccc(OC)cc2)C1O (single isomer, unassigned) [Example 115] . Could you help?
5.10
